- Test system: MS2 coat protein
- Assay: apparent KD of MS2 coat protein; higher = weaker reporter binding
- Measurement Parameters: Eterna round: R107; input ligand: theophylline 2 mM
Recorded Endpoint: apparent KD of MS2 coat protein (nM)
Answer with a number only, understood to be in nM.

# example entries with known answers
# Chain Sequence, Experimental Result
measured = [
    ("UAACAUGAGGAUCACCCAUGUAUACUAAGUCGAGGACCGGUACGGCCGCCACUCGAAAUUGAAGAAUUGGCGGUAAAUGUAAGUA [JR_ExcTryptoA_Sub019]", 14.3),
    ("UAUACAUGAGGAUCACCCAUGUGCCAUGAUACCAGACAUGAAAAUGUCCCUUGGCAGCAUGGGAGAUGUAUAGCGGGAAACCCGA [Turany]", 677),
    ("CCUCAAUCGUCGGCCGCCACUGGAUCAUGCGGAUACAUGAGGAUCACCCAUGUGGGUGUGGUACGCAGGACCGGGACAAGACCCG [#15 Same State - Tryptophan B]", 1030),
    ("UGGCAAGAGGGAAGGAGCGUCAGCAGAGUAACAUGAGGAUCACCCAUGUAGCACGUGGUGUGACAGGUAGGUCGCCCUCUGCCGU [SS-ArgB13]", 46),
]

Return apparent KD of MS2 coat protein measured with MS2 coat protein given this sequence: AAUAAUCUAGGUGAUACCAGCUCAACAUGAGGAUCACCCAUGUGCUCAUGAAGAGCUGAGAGCCCUUGGCAGCACCUAGAUAAUA [(Theo1)-(Ms2)-(M)'-(T)'-(Theo2)_Design2] 28.5

Return apparent KD of MS2 coat protein measured with MS2 coat protein given this sequence: UUAAUCUUAGAAGAAAACUUUUAAGCAGAAGGAGCGUGAUAAAACACAGGUAGGUCGCUGAAGGGAACAUGAGGAUCACCCAUGU [AstrosSSArgA#18] 29.4
